Taken from patent US6413775B1.

# System: MCF-7/hSc clone H-10 cells
# ASSAY_NAME: Growth inhibition and dose-response of clone H-10 cells (MCF-7/hSc) ±Dox by DENSPM
# Assay type: cell-based, human
# ASSAY_CONTEXT: -Dox H-10 cells; grown 48 h ±Dox, then DENSPM 48 h; read-out: IC50 of DENSPM (growth)
ASSAY_READOUT: IC50 (nM)
The reply should contain only the number, in nM.

Please tell me: IC50 of "CCNCCCNCCCNCCCNCC" , system MCF-7/hSc clone H-10 cells?
200
